// INHIBITION lookup, one value per entry
System: Plasmodium berghei
experimentalDetails: Screen against P. berghei liver stage (PbLuc), transformed with Luciferase, at 10uM
Type: functional, HepG2
conditionNotes: tested at 10 uM
About 8,600 (12%) of roughly 69,000 compounds showed an effect of 50% or more. This excerpt belongs to a sample that is enriched for strong results.
I only need the number, in %, no unit after it.

Past entries and their recorded results:
[[record]]
compound = "CCN(Cc1ccc(F)c(F)c1)Cc1nc2c(cnn2C)c(=O)[nH]1"
targetentity = "Plasmodium berghei"
endpointlabel = "INHIBITION"
measureunit = "%"
numericresult = -57.4

[[record]]
compound = "CN(C)c1nc(NCCc2ccnn2C)ncc1F"
targetentity = "Plasmodium berghei"
endpointlabel = "INHIBITION"
measureunit = "%"
numericresult = 42.3

[[record]]
compound = "Cc1nc(CN(C)C2CCN(Cc3ccc(Cl)s3)C2)no1 (stereo unspecified)"
targetentity = "Plasmodium berghei"
endpointlabel = "INHIBITION"
measureunit = "%"
numericresult = -35.7


Kindly consider the entry below.
Given the compound Cn1cc(C(=O)N2CCN(Cc3ccsc3)CC2)cn1 , write its reported INHIBITION.
-2.825
